Entries annotated with measured cleaved RNA product abundance
- Tested on: Bacillus subtilis
- Test description: cleaved RNA product abundance (RNA/gDNA barcode ratio) relative to median wild-type variant (ratio to wild type); higher = more accumulation of the downstream cleavage product
- Particulars: experiment (reporter, strain, medium): exp 4a: truncated aprE reporter, strain BJT201 with 2% xylose (RNase J1 expressed); cleavage site: cggR-gapA (positions -7 to +36 mutated)

>  <Input sequence>
ACAGACGAAGGAGCCGCAAAGAAGTTATTAAGGGATGGATAATTCCTCAATATAAATATCTCTCACTTATTTAAA

>  <Target system>
Bacillus subtilis

>  <cleaved RNA product abundance>
0.58

$$$$

[ask] Using the record for `ACAGACGAAGGAGCCGCAAGGAAGTTATTAAGTGATGAATAATCCCTCAATATAAATATCTCTCACTTATTTAAA` , report its cleaved RNA product abundance.
[reply] 0.149

[ask] Using the record for `ACAGACGAAGGAGCCGCAAAGAAGTTATTAAGGGATGAATGATCCCTGAATATAAATATCTCTCACTTATTTAAA` , report its cleaved RNA product abundance.
[reply] 0.383

---

Entries annotated with measured cleaved RNA product abundance
- Test system: Bacillus subtilis
- Test description: cleaved RNA product abundance (RNA/gDNA barcode ratio) relative to median wild-type variant (ratio to wild type); higher = more accumulation of the downstream cleavage product
- Particulars: experiment (reporter, strain, medium): exp 2b: truncated aprE reporter, strain BJT200; cleavage site: cggR-gapA (positions -7 to +36 mutated)

Here is how some sequences turned out for cleaved RNA product abundance.
>  <Input sequence>
ACAGACGAAGGAGCCGCAAATAAGTTATTAAGGAATGAATAATCCCTCAATATAAATATCTCTCACTTATTTAAA

>  <cleaved RNA product abundance>
0.0785

$$$$
>  <Input sequence>
ACAGACGAAGGAGCCGCAAAGAAGTTATTAAGGGATGAATAATCCCTCAACATAAATATCTCTCACTTATTTAAA

>  <cleaved RNA product abundance>
0.22

$$$$
>  <Input sequence>
ACAGACGAAGGAGCCGCTAAGAAGATATTAAGGGATGAATAATCCCTCAATATAAATATCTCTCACTTATTTAAA

>  <cleaved RNA product abundance>
0.625

$$$$

[ask] Using the record for `ACAGACGAAGGAGCCGCAAAGAAGTTATTAAGGGATGAATAATCCTTCAATATAATTATCTCTCACTTATTTAAA` , report its cleaved RNA product abundance.
[reply] 0.219

---

- Tested on: Bacillus subtilis
- Test description: cleaved RNA product abundance (RNA/gDNA barcode ratio) relative to median wild-type variant (ratio to wild type); higher = more accumulation of the downstream cleavage product
- Particulars: experiment (reporter, strain, medium): exp 4a: truncated aprE reporter, strain BJT201 with 2% xylose (RNase J1 expressed); cleavage site: cggR-gapA (positions -7 to +36 mutated)
Measure name: cleaved RNA product abundance
The response must contain the number and no unit.

Here is how some sequences turned out for cleaved RNA product abundance.
>  <Input sequence>
ACAGACGAAGGAGCCGCAAAAAAGCTATTAAGGGATGAATAATCCCTCAATATAAATATCTCTCACTTATTTAAA

>  <Target system>
Bacillus subtilis

>  <Quantitative readout>
0.855

$$$$
>  <Input sequence>
ACAGACGAAGGAGCCGCAAAGAACTTATTAAGGGATGAATAATCACTCAATATAAATATCTCTCACTTATTTAAA

>  <Target system>
Bacillus subtilis

>  <Quantitative readout>
0.152

$$$$
>  <Input sequence>
ACAGACGAAGGAGCCGCAAAGAAGTTATTAAGGTATGACTAATCCCTCAATATAAATATCTCTCACTTATTTAAA

>  <Target system>
Bacillus subtilis

>  <Quantitative readout>
0.107

$$$$
>  <Input sequence>
ACAGACGAAGGAGCCGCAAATAAGTTATAAAAGGATGAATAATCCCTCAATATAAATATCTCTCACTTATTTAAA

>  <Target system>
Bacillus subtilis

>  <Quantitative readout>
0.211

$$$$
>  <Input sequence>
ACAGACGAAGGAGCCGCAAAGAAGTTATTAAGGGTTGAAAAATCCCTCAATATAAATATCTCTCACTTATTTAAA

>  <Target system>
Bacillus subtilis

>  <Quantitative readout>
0.565

$$$$
>  <Input sequence>
ACAGACGAAGGAGCCGCAAAGAAGTTATTAAAGGATGAATAATGCCTCAATATAAATATCTCTCACTTATTTAAA

>  <Target system>
Bacillus subtilis

>  <Quantitative readout>
0.087

$$$$

[ask] Lookup: cleaved RNA product abundance / Bacillus subtilis / `ACAGACGAAGGAGCCGCAAAGAAGTTATTAAGGGATAAATAATCCCTCAATATAAATATCTCTCACTTATTTAAA`
[reply] 0.872

[ask] Lookup: cleaved RNA product abundance / Bacillus subtilis / `ACAGACGAAGGAGCCGCAAAGAAGTTATTAAGGGATGAATAATGCCTAAATATAAATATCTCTCACTTATTTAAA`
[reply] 0.149

[ask] Lookup: cleaved RNA product abundance / Bacillus subtilis / `ACAGACGAAGGAGCCGCAAACAAGTTATTAAGGGATGAATAATCCCACAATATAAATATCTCTCACTTATTTAAA`
[reply] 0.255

[ask] Lookup: cleaved RNA product abundance / Bacillus subtilis / `ACAGACGAAGGAGCCGCAAAGAAGTTATTAAGGGATGAATAATCCCTGAATATAAATAGCTCTCACTTATTTAAA`
[reply] 0.256

[ask] Lookup: cleaved RNA product abundance / Bacillus subtilis / `ACAGACGAAGGAGCCGCAAAGAAGTTATTAAGGGATGAATAATCCCACAAAATAAATATCTCTCACTTATTTAAA`
[reply] 0.256

---

- System: Bacillus subtilis
- Test description: cleaved RNA product abundance (RNA/gDNA barcode ratio) relative to median wild-type variant (ratio to wild type); higher = more accumulation of the downstream cleavage product
- Particulars: experiment (reporter, strain, medium): exp 8a: truncated aprE reporter, strain BJT201 with 2% xylose (RNase J1 expressed); cleavage site: glnRA (positions -5 to +31 mutated)
Entries annotated with measured cleaved RNA product abundance
The response must contain the number and no unit.

>  <Input sequence>
CGACATGTCCCGCTTCTTTCATTAATCCGTTAGCAACTGTTCTGCTATATATATTTACCTTTTAAGAGGAGGAAT

>  <cleaved RNA product abundance>
0.554

$$$$
>  <Input sequence>
CGACATGTCCCGCTTCTTTCATTAATCCGTTAGCAACTTTATTGCTATATACATTTACCTTTTAAGAGGAGGAAT

>  <cleaved RNA product abundance>
0.922

$$$$
>  <Input sequence>
CGACATGTCCCGCTTCTTTCATTAATCCATTAGAAACTGTTTTGCTATATACATTTACCTTTTAAGAGGAGGAAT

>  <cleaved RNA product abundance>
0.244

$$$$
>  <Input sequence>
CGACATGTCCCGCTTCTTTCATTAATCCATTAGCAACTGTTTTGCTATATACATTCACCTTTTAAGAGGAGGAAT

>  <cleaved RNA product abundance>
0.276

$$$$
>  <Input sequence>
CGACATGTCCCGCTTCTTTCATTAATCCGTTATCAACTGTTTAGCTATATACATTTACCTTTTAAGAGGAGGAAT

>  <cleaved RNA product abundance>
0.243

$$$$

[ask] Lookup: cleaved RNA product abundance / Bacillus subtilis / `CGACATGTCCCGCTTCTTTCATTATTCCGTTAGCAACTGTTTTGCTATTTACATTTACCTTTTAAGAGGAGGAAT`
[reply] 0.131

[ask] Lookup: cleaved RNA product abundance / Bacillus subtilis / `CGACATGTCCCGCTTCTTTCATTAATTCGTTATCAACTGTTTTGCTATATACATTTACCTTTTAAGAGGAGGAAT`
[reply] 0.31

---

- Test system: Bacillus subtilis
- Test description: cleaved RNA product abundance (RNA/gDNA barcode ratio) relative to median wild-type variant (ratio to wild type); higher = more accumulation of the downstream cleavage product
- Particulars: experiment (reporter, strain, medium): exp 2b: truncated aprE reporter, strain BJT200; cleavage site: cggR-gapA (positions -7 to +36 mutated)
Measure name: cleaved RNA product abundance
The response must contain the number and no unit.

Here is how some sequences turned out for cleaved RNA product abundance.
>  <Input sequence>
ACAGACGAAGGAGCCGCAAAGAGGTTATTAAGGCATGAATAATCCCTCAATATAAATATCTCTCACTTATTTAAA

>  <Target system>
Bacillus subtilis

>  <cleaved RNA product abundance>
0.0794

$$$$
>  <Input sequence>
ACAGACGAAGGAGCCGCAAAGAAGTTATTAAGGAATGAATAATACCTCAATATAAATATCTCTCACTTATTTAAA

>  <Target system>
Bacillus subtilis

>  <cleaved RNA product abundance>
0.121

$$$$
>  <Input sequence>
ACAGACGAAGGAGCCGCAAAGAAGTTATTAAGGGTTGAATGATCCCTCAATATAAATATCTCTCACTTATTTAAA

>  <Target system>
Bacillus subtilis

>  <cleaved RNA product abundance>
0.298

$$$$
>  <Input sequence>
ACAGACGAAGGAGCCGCAAAAAAGTTATTAAGTGATGAATAATCCCTCAATATAAATATCTCTCACTTATTTAAA

>  <Target system>
Bacillus subtilis

>  <cleaved RNA product abundance>
0.119

$$$$
>  <Input sequence>
ACAGACGAAGGAGCCGCAAAAAAGTTATTAAGGGATTAATAATCCCTCAATATAAATATCTCTCACTTATTTAAA

>  <Target system>
Bacillus subtilis

>  <cleaved RNA product abundance>
1.51

$$$$

[ask] Lookup: cleaved RNA product abundance / Bacillus subtilis / `ACAGACGAAGGAGCCGCATAGAAGTTATTAAGGGATGAATAACCCCTCAATATAAATATCTCTCACTTATTTAAA`
[reply] 0.457

[ask] Lookup: cleaved RNA product abundance / Bacillus subtilis / `ACAGACGAAGGAGCCGCAAAGAAGTTATTAAGGTATGAATAATCCATCAATATAAATATCTCTCACTTATTTAAA`
[reply] 0.125

[ask] Lookup: cleaved RNA product abundance / Bacillus subtilis / `ACAGACGAAGGAGCCGCAAAGAAGTTATAAAGGGATGAATAAACCCTCAATATAAATATCTCTCACTTATTTAAA`
[reply] 0.145

[ask] Lookup: cleaved RNA product abundance / Bacillus subtilis / `ACAGACGAAGGAGCCGCAAAGAAGTTATTAATGAATGAATAATCCCTCAATATAAATATCTCTCACTTATTTAAA`
[reply] 0.0941

[ask] Lookup: cleaved RNA product abundance / Bacillus subtilis / `ACAGACGAAGGAGCCGCAAAGAAGTTTTTAAGGGATGTATAATCCCTCAATATAAATATCTCTCACTTATTTAAA`
[reply] 0.285

[ask] Lookup: cleaved RNA product abundance / Bacillus subtilis / `ACAGACGAAGGAGCCGCAAAGAAGTTCATAAGGGATGAATAATCCCTCAATATAAATATCTCTCACTTATTTAAA`
[reply] 0.162

[ask] Lookup: cleaved RNA product abundance / Bacillus subtilis / `ACAGACGAAGGAGCCGCAAAGAAGTTATTAAGGGATGAATAATCCCTAAATATAAATATCTCTCACTTATTTAAA`
[reply] 0.622

[ask] Lookup: cleaved RNA product abundance / Bacillus subtilis / `ACAGACGAAGGAGCCGCAAACAAGTTATTAAGGGATGAATAATCCCACAATATAAATATCTCTCACTTATTTAAA`
[reply] 0.109
